Source listed as the supplement of paper PMC13380429.

Kindly supply the reported cell viability values for the records listed here.
# Tested on: Caco-2
# assay protocol: cell viability relative to DMSO; higher = less toxic
# cond: 72 h; 1 nM
Output spec: scalar in %, unitless text.

Lookup result for `C[C@@H]1CN([C@H]2CC[C@](C#N)(c3ccc(F)cc3)CC2)CC[C@]1(C(=O)O)c1ccccc1` ; measured cell viability: 103

Value of measured cell viability for the entry `CNC(=O)[C@@H](Cc1ccccc1)N(C)C(=O)[C@@H](Cc1ccc2ccccc2c1)N(C)C(=O)/C=C/CC(C)(C)N` : 99.8

Reported cell viability ( `Cc1nc2ccccc2n1Cc1ccc(Cl)cc1` ) = 103

Lab note: `Cn1ccnc1S` gave cell viability of 99.3

C[S+]([O-])c1ccc(-c2nc(-c3ccc(F)cc3)c(-c3ccncc3)[nH]2)cc1 (centres undefined) has a reported cell viability of 111

Lookup result for `CNc1nc(-c2ccc3c(N)n[nH]c3c2)cc(N2C[C@@H](C(=O)NC3CCCCC3)CC[C@H]2C)n1` ; measured cell viability: 106

Notebook: `C[C@]12CC[C@H](O)C[C@H]1CC[C@@H]1[C@@H]2CC[C@]2(C)[C@@](O)(c3ccoc3)CC[C@]12O` , cell viability read as 103

cell viability for `Cn1c(=O)c2c(ncn2CC(=O)Nc2ccc(-c3ccccc3)nn2)n(C)c1=O` is 91.7

Summary for this compound, NC(=O)c1ccc([N+](=O)[O-])cc1Cl [aklomide] : cell viability is 95.9

// cell viability value for Cc1cc2c(OCC(CNC(C)(C)C)OC(=O)c3ccccc3)cccc2[nH]1 (centres undefined) : 93.7

Entry under test: `Cc1[nH]c2ccc(Cl)cc2c1C1=CCNCC1` . Its cell viability was 95.9

cell viability recorded for this compound, `COc1ccc(S(=O)(=O)N(C(C)=O)c2ccccc2/C=C/c2cc[n+]([O-])cc2)cc1` , is 105

Short answer for `CCCOc1ccc(C(=O)OCCN(CC)CC)cc1N` : cell viability was 92.8

The compound identified as `CCCc1c2oc(C(=O)O)cc(=O)c2cc2c(=O)cc(C(=O)O)n(CC)c12` registered its cell viability at 98.3

For reference, reported cell viability for `O=C(c1cncc(Br)c1)N1CCC(N2CCCC2)CC1` stands at 99.1

// `COc1ccc(C2C(=O)c3ccccc3C2=O)cc1` : cell viability value = 101

Just so you know, measured cell viability for `CCNC(=O)CC[C@H](N)C(=O)O` came out at 98.2

Entry `Cc1cccn2c(=O)c(-c3nnn[nH]3)cnc12` — recorded cell viability = 95.1

For `N#Cc1ccc(COC[C@H]2O[C@@H](n3c(NCc4ccc(Cl)c(Cl)c4)nc4c(N)ncnc43)[C@H](O)[C@@H]2O)cc1` the compound record lists cell viability as 94.5

###

# Tested on: Caco-2
# assay protocol: cell viability relative to DMSO; higher = less toxic
# cond: 72 h; 1 nM
readout: cell viability (%)
Kindly provide the numeric value in % only, without the unit symbol.

Kindly note: Caco-2, `O=C(/C=C/c1ccc(O)c2c1[C@H](C(=O)O[C@H](Cc1ccc(O)c(O)c1)C(=O)O)[C@@H](c1ccc(O)c(O)c1)O2)O[C@H](Cc1ccc(O)c(O)c1)C(=O)O` , cell viability value reported: 99.2

// returns cell viability for `CCCn1cnc2c1c(=O)n(CCCCC(C)=O)c(=O)n2C` with Caco-2; value = 91.1

// returns cell viability for CN1CCCC(CN2c3ccccc3Sc3ccccc32)C1 (centres undefined) with Caco-2; value = 94.1

Reading of cell viability for `CC[C@@H](C)N(C)C(=O)c1cc2ccccc2c(-c2ccccc2Cl)n1` with Caco-2: 106

###

# Test system: A549-ACE2 infected with SARS-CoV-2
# assay protocol: SARS-CoV-2 infection rate relative to DMSO; higher = more infection
# cond: 10 µM; 24 h
readout: SARS-CoV-2 infection rate (%)
Your answer should be a plain number; it is taken to be in %.

Tested on A549-ACE2 infected with SARS-CoV-2: `CCN1CCN(c2ccc(C(C)(C)NC(=O)c3cc4[nH]c5ccccc5c(=O)c4cc3F)cn2)CC1` . Observed SARS-CoV-2 infection rate: 11

Hey, A549-ACE2 infected with SARS-CoV-2 data for `CCCc1cc(C)[nH]c(=O)c1CNC(=O)c1cc(-c2ccc(N3CCN(C(C)C)CC3)nc2)cc2c1cnn2C(C)C` : SARS-CoV-2 infection rate came out at 29

A549-ACE2 infected with SARS-CoV-2 SARS-CoV-2 infection rate of `C[C@@H](O[C@H]1OCCN(Cc2nn[nH]c2CN(C)C)[C@H]1c1ccc(F)cc1)c1cc(C(F)(F)F)cc(C(F)(F)F)c1` is 21

Entry `Cc1ccc2cc(-c3c(C)ccc(C(=O)c4c(-c5ccccc5)n(C)n(-c5ccccc5)c4=O)c3N)ccc2n1` , A549-ACE2 infected with SARS-CoV-2 data, SARS-CoV-2 infection rate value: 91

###

# Tested on: Caco-2
# assay protocol: cell viability relative to DMSO; higher = less toxic
# cond: 72 h; 1 nM
For each record, write down the corresponding cell viability.
Write down the numeric answer in % and omit the unit.

Note to self: cell viability of Cc1[nH]c(=O)c(C#N)cc1-c1ccc2nccn2c1 [olprinone] with Caco-2 was 98.7

With Caco-2 as the test system, Cc1ncc([N+](=O)[O-])n1CC(O)CCl (centres undefined) [ornidazole] showed cell viability of 103

Value (cell viability, Caco-2) for record COc1ccc(CCN(C)CCCN2CCc3cc(OC)c(OC)cc3CC2=O)cc1OC [zatebradine] = 97.2

Simply: COc1cc2c(c(OC)c1OC)-c1c(cc3c(c1OC)OCO3)CC(C)C(C)C2 (centres undefined) [schisandrin-B] , Caco-2, cell viability = 97.5

Measured cell viability (Caco-2), entry Ic1cc(-c2ccccc2)ncn1 [4-iodo-6-phenylpyrimidine] : 93.8

The measured cell viability that COc1cccc2cc(-c3nc([C@H]4CC[C@H](C(=O)O)CC4)n4ncnc(N)c34)[nH]c12 [OSI-027] showed for Caco-2 is 98.5

Record CC(C(=O)O)c1ccc(N2Cc3ccccc3C2=O)cc1 (centres undefined) [indoprofen] ; system Caco-2; cell viability = 91.9

Let me check: CC(C)C(=O)OC[C@H]1O[C@@H](n2ccc(N)nc2=O)[C@](C)(F)[C@@H]1OC(=O)C(C)C [mericitabine] , system Caco-2, measured cell viability is 93.9

Tested on Caco-2, the item Nc1nc(Cl)nc2c1ncn2[C@@H]1O[C@H](CO)[C@@H](O)[C@@H]1F [clofarabine] showed cell viability equal to 90.2

###

Kindly supply the reported cell viability values for the records listed here.
# Tested on: Calu-3
# assay protocol: cell viability relative to DMSO; higher = less toxic
# cond: 72 h; 100 nM
Give just the number in %; leave the unit off.

Reported cell viability ( `CN(c1ccc(NC(=O)Nc2ccccc2)cc1)S(=O)(=O)c1cnn(-c2ccc(F)cc2)c1` ) = 97.6

GET /value?item= Cc1cc2c(OCC(CNC(C)(C)C)OC(=O)c3ccccc3)cccc2[nH]1 (centres undefined) &field=cell viability returns 108

Briefly, cell viability measured for `O=C(O[C@H]1CN2CCC1CC2)N(Cc1cc(F)c(F)c(F)c1)c1cccc(F)c1` : 106

cell viability for `C[C@@H](O[C@H]1OCCN(Cc2nn[nH]c2CN(C)C)[C@H]1c1ccc(F)cc1)c1cc(C(F)(F)F)cc(C(F)(F)F)c1` is 91.8

Briefly, cell viability measured for `OCCN1CCN(CC/C=C2/c3ccccc3Sc3ccc(Cl)cc32)CC1` : 98.9

Record `CNC(=O)c1ccc(-c2cnc3ncc(Cc4ccc5ncccc5c4)n3n2)cc1F` . Reported cell viability: 99.9

Value of cell viability reported for the compound `N#C/C(=C\c1ccc(O)c(O)c1)C(N)=O` is 103

// recorded cell viability for `C[C@]12CC[C@H](O)C[C@H]1CC[C@@H]1[C@@H]2CC[C@]2(C)[C@@](O)(c3ccoc3)CC[C@]12O` : 103

For `CCOC(N)=O` the compound record lists cell viability as 90.5

Notebook: `O=C(NC1CC1)c1cc(-c2cccs2)on1` , cell viability read as 104

Reported cell viability ( CC(=O)Nc1ccc(OCC(O)CNC(C)C)cc1 (centres undefined) ) = 111

The measured cell viability associated with `CCc1c(-c2ccccc2)c(-c2ccccc2)nn1-c1ccccc1-c1cccc(OCC(=O)O)c1` reads 101

So for CC(COc1ccccc1)N(CCCl)Cc1ccccc1 (centres undefined) , the logged cell viability turned out to be 106

Entry under test: CC(CCc1ccc(O)cc1)NCC(O)c1ccc(O)cc1 (centres undefined) . Its cell viability was 101

Kindly note the recorded cell viability for COc1ccnc(C[S+]([O-])c2nc3cc(OC(F)F)ccc3[nH]2)c1OC (centres undefined) , which is 98.4

Form field cell viability, entry `Oc1ncnc2[nH]ncc12` : 90.4

According to the records, this compound `O=S(=O)(O)c1ccc(O)cc1` displays cell viability of 104

The measured cell viability associated with `N#Cc1ccc(COC[C@H]2O[C@@H](n3c(NCc4ccc(Cl)c(Cl)c4)nc4c(N)ncnc43)[C@H](O)[C@@H]2O)cc1` reads 99.6

So for CCOC(=O)c1c(C)n(C)c2ccc(O)cc12 [mecarbinate] , the logged cell viability turned out to be 98.6
